Entry source: patent US9796711B2

target-of-assay: ΔF508-CFTR (Homo sapiens, UniProt P13569, DEL508-508)
Construct: host or cells: CFBE41o-, doxycycline-inducible
Sequence (P13569 with tags, fused parts or gaps DEL508-508): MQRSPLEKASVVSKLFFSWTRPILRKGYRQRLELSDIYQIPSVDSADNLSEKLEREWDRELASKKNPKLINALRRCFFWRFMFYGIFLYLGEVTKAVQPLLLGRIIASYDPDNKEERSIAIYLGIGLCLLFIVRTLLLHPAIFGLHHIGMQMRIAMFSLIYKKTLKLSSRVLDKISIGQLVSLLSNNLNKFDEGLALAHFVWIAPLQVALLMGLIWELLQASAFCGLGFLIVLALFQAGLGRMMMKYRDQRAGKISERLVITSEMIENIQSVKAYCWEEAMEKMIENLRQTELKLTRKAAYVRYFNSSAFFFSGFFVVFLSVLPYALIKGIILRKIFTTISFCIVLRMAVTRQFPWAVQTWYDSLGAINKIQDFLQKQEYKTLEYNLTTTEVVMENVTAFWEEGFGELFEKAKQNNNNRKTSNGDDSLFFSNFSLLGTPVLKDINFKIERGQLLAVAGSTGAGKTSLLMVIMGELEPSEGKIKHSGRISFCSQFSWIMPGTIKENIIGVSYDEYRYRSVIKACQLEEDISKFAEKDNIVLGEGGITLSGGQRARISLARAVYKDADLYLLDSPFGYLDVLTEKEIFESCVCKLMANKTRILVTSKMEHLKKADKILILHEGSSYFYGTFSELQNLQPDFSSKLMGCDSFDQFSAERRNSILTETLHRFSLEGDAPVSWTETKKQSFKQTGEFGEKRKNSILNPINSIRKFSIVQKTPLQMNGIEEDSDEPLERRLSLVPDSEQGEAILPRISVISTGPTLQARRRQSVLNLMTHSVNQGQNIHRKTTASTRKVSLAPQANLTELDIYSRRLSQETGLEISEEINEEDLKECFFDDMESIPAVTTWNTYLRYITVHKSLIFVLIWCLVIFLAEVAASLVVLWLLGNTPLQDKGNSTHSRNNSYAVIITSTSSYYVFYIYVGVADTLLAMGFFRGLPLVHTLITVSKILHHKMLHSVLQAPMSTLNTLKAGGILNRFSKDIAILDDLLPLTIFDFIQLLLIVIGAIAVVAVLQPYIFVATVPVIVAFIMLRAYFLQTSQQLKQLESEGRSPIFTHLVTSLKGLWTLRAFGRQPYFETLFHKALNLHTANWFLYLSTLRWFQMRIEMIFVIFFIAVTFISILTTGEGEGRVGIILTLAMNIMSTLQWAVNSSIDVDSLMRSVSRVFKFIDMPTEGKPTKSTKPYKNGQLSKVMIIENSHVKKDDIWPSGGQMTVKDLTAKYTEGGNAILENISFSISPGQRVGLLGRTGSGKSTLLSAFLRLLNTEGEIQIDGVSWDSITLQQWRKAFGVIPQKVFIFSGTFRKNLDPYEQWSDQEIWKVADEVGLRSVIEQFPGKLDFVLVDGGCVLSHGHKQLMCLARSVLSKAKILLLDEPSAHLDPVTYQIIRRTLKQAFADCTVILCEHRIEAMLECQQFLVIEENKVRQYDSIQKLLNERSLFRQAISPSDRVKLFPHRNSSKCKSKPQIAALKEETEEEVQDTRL
assay-summary: CFTR cell surface levels using HRP-tagged ΔF508-CFTR expressing CFBE cells, in the presence of a co-corrector
Format: cell-based
protocol-conditions: HRP-tagged ΔF508-CFTR expressing CFBE cells, in the presence of 3 μM co-corrector
Each record gets a class by % Activation: low-valued: < 300%; mid-valued: ≥ 300% and < 400%; high-valued: ≥ 400%

compound: Cc1nn(-c2ccccc2)c2nc(C(=O)O)cc(N3CC(N4CCOCC4)C3)c12
target-of-assay: ΔF508-CFTR (Homo sapiens, UniProt P13569, DEL508-508)
answer-label: low-valued
//
compound: COc1cc(F)cc(-n2nc(C3CCC3)c3c(N4CCC(N5CCOCC5)CC4)cc(C(=O)O)nc32)c1
target-of-assay: ΔF508-CFTR (Homo sapiens, UniProt P13569, DEL508-508)
answer-label: high-valued
//
compound: N#CC1CN(C2CCN(c3cc(C(=O)O)nc4c3c(C3CCC3)nn4-c3ccc(F)cc3)CC2)C1
target-of-assay: ΔF508-CFTR (Homo sapiens, UniProt P13569, DEL508-508)
answer-label: high-valued
//
compound: COCCN(C)C1CCN(c2cc(C(=O)O)nc3c2c(C2CCC2)nn3-c2ccc(F)cc2)CC1
target-of-assay: ΔF508-CFTR (Homo sapiens, UniProt P13569, DEL508-508)
answer-label: high-valued
//
compound: CC(C)c1nn(-c2ccc(F)cc2)c2nc(C(=O)O)cc(N3CCN(CCC(=O)N4CCCN(C)CC4)CC3)c12
target-of-assay: ΔF508-CFTR (Homo sapiens, UniProt P13569, DEL508-508)
answer-label: low-valued

Inquiry: Consider CC(C)c1nn(-c2ccc(F)cc2F)c2nc(C(=O)O)cc(-c3ccc(N4CCC(C#N)CC4)nc3)c12 . To which % Activation class does it belong?
Reply text: mid-valued

Inquiry: Consider Cc1nn(-c2ccccc2)c2nc(C(=O)O)cc(-c3ccc(N4CCC(O)C4)cc3)c12 (stereo not shown) . To which % Activation class does it belong?
Reply text: mid-valued

Inquiry: Consider CC(C)(COc1cc(C(=O)O)nc2c1c(C1CCC1)nn2-c1ccccc1)S(C)(=O)=O . To which % Activation class does it belong?
Reply text: low-valued

Inquiry: Consider COCC1CCN(c2cc(C(=O)O)nc3c2c(C(C)C)nn3-c2cccc(N(C)C)c2)CC1 . To which % Activation class does it belong?
Reply text: high-valued

Inquiry: Consider COCC1CCN(c2cc(C(=O)O)nc3c2c(C(C)C)nn3-c2cccc(C)c2)CC1 . To which % Activation class does it belong?
Reply text: high-valued

----------
Would you mind telling me the reported % Activation of each entry?
target-of-assay: ΔF508-CFTR (Homo sapiens, UniProt P13569, DEL508-508)
Construct: host or cells: CFBE41o-, doxycycline-inducible
assay-summary: CFTR cell surface levels using HRP-tagged ΔF508-CFTR expressing CFBE cells, intrinsic corrector capacity
Assay type: cell-based
protocol-conditions: HRP-tagged ΔF508-CFTR expressing CFBE cells; intrinsic corrector capacity (no co-corrector); 33° C., 20 hours
Answers are plain numbers, in %.

Solved cases below.
compound: COCC1CCN(c2cc(C(=O)O)nc3c2c(C(C)C)nn3C2CCCCC2)CC1
% Activation, %: 198.57

compound: O=C(O)c1cc(N2CCN3C[C@H](O)C[C@H]3C2)c2c(C3CCC3)nn(-c3ccccc3)c2n1
% Activation, %: 35.755

compound: CC(C)c1nn(-c2ccc(F)cc2)c2nc(C(=O)O)cc(N3CCC(O)(CN(C)C(C)C)CC3)c12
% Activation, %: 58.3

State recorded % Activation for all listed compounds.
1. CCOCC1(F)CCCN(c2cc(C(=O)O)nc3c2c(C2CCC2)nn3-c2ccccc2)C1 (stereo not drawn)
2. CCN(CC)CCN1CCN(c2cc(C(=O)O)nc3c2c(C(C)C)nn3-c2ccc(F)cc2)CC1
3. O=C(O)c1cc(N2CC(F)(F)C2)c2c(C3CCC3)nn(-c3ccccc3)c2n1
4. CN(c1cc(C(=O)O)nc2c1c(C1CCC1)nn2-c1ccccc1)[C@H]1C[C@@H](OC(C)(C)C)C1

Reply text:
1: 138.15; 2: 45.22; 3: 80.74; 4: 120.85

State recorded % Activation for all listed compounds.
1. CC(C)c1nn(-c2ccc(F)cc2)c2nc(C(=O)O)cc(N3CCC(N(C)C(C)C)CC3)c12
2. CCN(CC)C1CCN(c2cc(C(=O)O)nc3c2c(C(C)C)nn3-c2ccc(F)cc2)CC1
3. O=C(O)c1cc(N2CCC(CN3CCCOCC3)CC2)c2c(C3CCC3)nn(-c3ccccc3)c2n1
4. O=C(O)c1cc(N2CCC3(CC2)CCN(C2CCC2)CC3)c2c(C3CCC3)nn(-c3ccc(F)cc3)c2n1
5. O=C(O)c1cc(N2CCC(N3CCOCC3)CC2)c2c(C3CCC3)nn(-c3ccc(C(F)(F)F)cc3)c2n1
6. CCOC(=O)N1CCN(C2CCN(c3cc(C(=O)O)nc4c3c(C3CCC3)nn4-c3ccc(F)cc3)CC2)CC1
7. CN1C(=O)CO[C@@H]2CN(c3cc(C(=O)O)nc4c3c(C3CCC3)nn4-c3ccccc3)C[C@@H]21
8. COc1ccc(-n2nc(C3CCC3)c3c(N4CCC(N5CCOCC5)CC4)cc(C(=O)O)nc32)cc1F

Reply text:
[114, 121.5, 227.9, 164, 188.7, 367.25, 65.78, 212.4]
